- Target Under Test: UniProtKB P41145
- Sequence (P41145 whole entry): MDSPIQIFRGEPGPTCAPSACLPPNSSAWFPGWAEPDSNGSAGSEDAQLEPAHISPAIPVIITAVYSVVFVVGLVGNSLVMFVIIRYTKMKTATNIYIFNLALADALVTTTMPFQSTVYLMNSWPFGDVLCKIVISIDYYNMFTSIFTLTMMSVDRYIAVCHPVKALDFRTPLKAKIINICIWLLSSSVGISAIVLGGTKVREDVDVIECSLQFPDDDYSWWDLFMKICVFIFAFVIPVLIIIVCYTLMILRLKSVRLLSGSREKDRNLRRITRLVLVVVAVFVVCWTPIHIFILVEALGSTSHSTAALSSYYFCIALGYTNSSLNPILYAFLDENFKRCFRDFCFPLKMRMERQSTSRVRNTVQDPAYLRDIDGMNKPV
Reported AC50 values for the following compounds.
Readout Kind: AC50

>>> print(df.to_string())
                                    compound    result
 0          CN1CCC(=C2c3ccccc3CCc3sccc32)CC1   1.57 µM
 1  O=[N+]([O-])c1cn2c(n1)OC[C@@H](OCc1ccc(OC(F)(F)F)cc1)C2   > 10 µM
 2     CN1CCN(C2=Nc3ccccc3Sc3ccc(Cl)cc32)CC1   > 30 µM
 3  CS(=O)(=O)c1ccc(C2=C(c3ccccc3)C(=O)OC2)cc1   > 10 µM
 4  Cc1cc(O)c(C(=O)N[C@@H](C(=O)N[C@@H]2C(=O)N3C(C(=O)O)=C(CSc4nnnn4C)CS[C@H]23)c2ccc(O)cc2)cn1 [CEFPIRAMIDE]   > 30 µM
 5          CCOC(=O)[N-]c1cn(N2CCOCC2)n[o+]1   > 30 µM
 6  O=[N+]([O-])O[C@@H]1CO[C@H]2[C@@H]1OC[C@@H]2O [ISOSORBIDE MONONITRATE]   > 10 µM
 7             O=C(O)/C=C/c1ccc(Cn2ccnc2)cc1   > 30 µM
 8  CC/C(=C(\c1ccccc1)c1ccc(OCCN(C)C)cc1)c1ccccc1   8.53 µM
 9    Clc1ccccc1C(c1ccccc1)(c1ccccc1)n1ccnc1  0.746 µM
10  Cc1c(OCC(F)(F)F)ccnc1C[S+]([O-])c1nc2ccccc2[nH]1 (configuration not stated)   4.88 µM
11  CN(C)CCC(c1ccc(Cl)cc1)c1ccccn1 (configuration not stated)   > 10 µM
12  Clc1ccc(C(c2ccccc2Cl)C(Cl)Cl)cc1 (configuration not stated)   > 10 µM
13  O=C(O[C@H]1C[C@H]2CC[C@@H](C1)[N+]21CCCC1)C(O)(c1ccccc1)c1ccccc1   > 30 µM
14  O=C(NCCNCC(O)COc1ccc(O)cc1)N1CCOCC1 (configuration not stated)   > 30 µM
15  Nc1nc(Cl)nc2c1ncn2[C@H]1C[C@H](O)[C@@H](CO)O1   > 30 µM
16     CCCCCNC(=N)N/N=C/c1c[nH]c2ccc(OC)cc12    4.9 µM
17  CC[C@H]1CN2CCc3cc(OC)c(OC)cc3[C@@H]2C[C@@H]1C[C@H]1NCCc2cc(OC)c(OC)cc21   > 30 µM
18  C[C@H](CSC(=O)c1ccccc1)C(=O)N1C[C@@H](Sc2ccccc2)C[C@H]1C(=O)O   > 10 µM
19  Cc1ccc(-c2cc(C(F)(F)F)nn2-c2ccc(S(N)(=O)=O)cc2)cc1   > 10 µM
20  CCC(C(=O)O)c1ccc(N2Cc3ccccc3C2=O)cc1 (configuration not stated)   > 30 µM
21  CN1C(=O)CCS(=O)(=O)C1c1ccc(Cl)cc1 (configuration not stated)   > 10 µM
22               c1ccc([C@H]2CN3CCSC3=N2)cc1   > 30 µM
23                  Clc1ccc2nsnc2c1NC1=NCCN1   > 10 µM
24  CCOc1ccc(Cc2cc([C@@H]3O[C@H](CO)[C@@H](O)[C@H](O)[C@H]3O)ccc2Cl)cc1   > 10 µM
25  CCN(CC)C(=O)N[C@H]1C[C@@H]2c3cccc4[nH]cc(c34)C[C@H]2N(C)C1 [TERGURIDE]   > 30 µM
26  O=C(NCCN1CCOCC1)c1ccc(Cl)cc1 [MOCLOBEMIDE]   > 10 µM
27  CCCN(CCC)C(=O)C(CCC(=O)O)NC(=O)c1ccccc1 (configuration not stated) [PROGLUMIDE]   > 10 µM
28  CC(CC(c1ccccc1)c1ccccc1)NC(C)(C)C (configuration not stated)    8.4 µM
29  COC(=O)C1=C(C)NC(C)=C(C(=O)OC2CCCN(Cc3ccccc3)C2)C1c1cccc([N+](=O)[O-])c1 (configuration not stated)    1.5 µM
30  CN1C(=O)C(O)N=C(c2ccccc2Cl)c2cc(Cl)ccc21 (configuration not stated)    8.1 µM
31               Clc1ccc(CCCOCCCN2CCCCC2)cc1   > 30 µM
32  COc1ccccc1OCC(O)CN1CCN(CC(=O)Nc2c(C)cccc2C)CC1 (configuration not stated)   > 30 µM
33  C=CCN1CCCC1CNC(=O)c1cc(S(N)(=O)=O)cc(OC)c1OC (configuration not stated) [VERALIPRIDE]   > 30 µM
34                 CC[C@@H](C(N)=O)N1CCCC1=O   > 30 µM
35  Cc1cc(C)c(NC(=O)CN(CC(=O)O)CC(=O)O)c(C)c1Br   > 30 µM
36  Fc1ccc(C(c2ccccc2)(c2ccccc2F)n2ccnc2)cc1 (configuration not stated)   0.93 µM

----------
Reported AC50 values for the following molecules.
- Target Under Test: Muscarinic acetylcholine receptor M2 (Homo sapiens); also: assay procedure not described here
- Sequence (P08172 whole entry): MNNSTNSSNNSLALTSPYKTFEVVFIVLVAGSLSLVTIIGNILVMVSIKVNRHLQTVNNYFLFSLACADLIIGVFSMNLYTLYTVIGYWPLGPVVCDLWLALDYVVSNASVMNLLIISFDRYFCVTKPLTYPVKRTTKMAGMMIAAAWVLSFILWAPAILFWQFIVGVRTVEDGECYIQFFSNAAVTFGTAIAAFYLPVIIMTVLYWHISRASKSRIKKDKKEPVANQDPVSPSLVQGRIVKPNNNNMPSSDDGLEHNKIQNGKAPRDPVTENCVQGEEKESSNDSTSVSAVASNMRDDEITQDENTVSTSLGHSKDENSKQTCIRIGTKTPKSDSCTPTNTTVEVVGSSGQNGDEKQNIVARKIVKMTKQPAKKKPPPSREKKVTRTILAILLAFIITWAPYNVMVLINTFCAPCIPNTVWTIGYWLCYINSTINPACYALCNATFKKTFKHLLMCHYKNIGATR
- Assay type: functional, cell-based
Readout Kind: AC50

>>> df
                                    molecule                         target_under_test  readout_kind    result
 0        CC(=O)NCCCS(=O)(=O)O [ACAMPROSATE]  Muscarinic acetylcholine receptor M2 (Homo sapiens)          AC50   > 30 µM
 1  C[C@]12CC[C@H]3[C@@H](CCC4=CC(=O)CC[C@@]43C)[C@@H]1CC[C@@H]2O  Muscarinic acetylcholine receptor M2 (Homo sapiens)          AC50   > 10 µM
 2     CNS(=O)(=O)Cc1ccc2[nH]cc(CCN(C)C)c2c1  Muscarinic acetylcholine receptor M2 (Homo sapiens)          AC50   > 30 µM
 3  C[C@@H](O)[C@H]1C(=O)N2C(C(=O)O)=C(S[C@@H]3CN[C@H](C(=O)N(C)C)C3)[C@H](C)[C@H]12  Muscarinic acetylcholine receptor M2 (Homo sapiens)          AC50  > 300 µM
 4  COc1ccc(CCN(C)CCCC(C#N)(c2cc(OC)c(OC)c(OC)c2)C(C)C)cc1OC (stereo not drawn)  Muscarinic acetylcholine receptor M2 (Homo sapiens)          AC50   > 30 µM
 5  O=P1(NCCCl)OCCCN1CCCl (stereo not drawn) [IFOSFAMIDE]  Muscarinic acetylcholine receptor M2 (Homo sapiens)          AC50   > 30 µM
 6    NC(=O)CN1CC(O)CC1=O (stereo not drawn)  Muscarinic acetylcholine receptor M2 (Homo sapiens)          AC50   > 30 µM
 7        Cc1cc(C(C)(C)C)c(O)c(C)c1CC1=NCCN1  Muscarinic acetylcholine receptor M2 (Homo sapiens)          AC50   > 30 µM
 8  CC[C@H]1[C@@H](O)[C@@H]2[C@H](CC[C@]3(C)[C@@H]([C@H](C)CCC(=O)O)CC[C@@H]23)[C@@]2(C)CC[C@@H](O)C[C@@H]12  Muscarinic acetylcholine receptor M2 (Homo sapiens)          AC50   > 30 µM
 9  Cc1cccc(C(C)c2cnc[nH]2)c1C (stereo not drawn)  Muscarinic acetylcholine receptor M2 (Homo sapiens)          AC50   > 10 µM
10  COc1cc2c(N)nc(N3CCN(C(=O)OCC(C)(C)O)CC3)nc2c(OC)c1OC  Muscarinic acetylcholine receptor M2 (Homo sapiens)          AC50   > 30 µM
11  O=C(O)C1=C(CSc2nnnn2CS(=O)(=O)O)CS[C@@H]2[C@H](NC(=O)[C@H](O)c3ccccc3)C(=O)N12  Muscarinic acetylcholine receptor M2 (Homo sapiens)          AC50   > 30 µM
12              C[C@H](N)[C@H](O)c1cccc(O)c1  Muscarinic acetylcholine receptor M2 (Homo sapiens)          AC50   > 10 µM
13                       O=C(O)CCCCCCCC(=O)O  Muscarinic acetylcholine receptor M2 (Homo sapiens)          AC50   > 10 µM
14  Fc1ccc(C(c2ccccc2)(c2ccccc2F)n2ccnc2)cc1 (stereo not drawn)  Muscarinic acetylcholine receptor M2 (Homo sapiens)          AC50   > 30 µM
15  CCCN(CCC)C(=O)C(CCC(=O)O)NC(=O)c1ccccc1 (stereo not drawn) [PROGLUMIDE]  Muscarinic acetylcholine receptor M2 (Homo sapiens)          AC50   > 10 µM
16  CN1C(C(=O)Nc2ccccn2)=C(O)c2sc(Cl)cc2S1(=O)=O  Muscarinic acetylcholine receptor M2 (Homo sapiens)          AC50   > 10 µM
17  CCCC(C)C1(CC)C(=O)NC(=O)NC1=O (stereo not drawn)  Muscarinic acetylcholine receptor M2 (Homo sapiens)          AC50   > 10 µM
18               c1ccc([C@H]2CN3CCSC3=N2)cc1  Muscarinic acetylcholine receptor M2 (Homo sapiens)          AC50   > 30 µM
19                   CC=CC(=O)N(CC)c1ccccc1C  Muscarinic acetylcholine receptor M2 (Homo sapiens)          AC50   > 10 µM
20     NS(=O)(=O)Cc1noc2ccccc12 [ZONISAMIDE]  Muscarinic acetylcholine receptor M2 (Homo sapiens)          AC50   > 10 µM
21  CO/N=C(\C(=O)N[C@@H]1C(=O)N2C(C(=O)O)=C(CSc3nnnn3C)CS[C@H]12)c1csc(N)n1  Muscarinic acetylcholine receptor M2 (Homo sapiens)          AC50   > 30 µM
22  Cc1nc([N+](=O)[O-])cn1-c1ccc([N+](=O)[O-])cc1  Muscarinic acetylcholine receptor M2 (Homo sapiens)          AC50   > 30 µM
23  COC(=O)[C@H]1[C@H]2C[C@@H]3c4[nH]c5cc(OC)ccc5c4CCN3C[C@H]2C[C@@H](OC(=O)/C=C/c2cc(OC)c(OC)c(OC)c2)[C@@H]1OC  Muscarinic acetylcholine receptor M2 (Homo sapiens)          AC50   > 10 µM
24  CC(CC(c1ccccc1)c1ccccc1)NC(C)(C)C (stereo not drawn)  Muscarinic acetylcholine receptor M2 (Homo sapiens)          AC50   > 30 µM
25  CC(C)(C)C(=O)Oc1ccc(S(=O)(=O)Nc2ccccc2C(=O)NCC(=O)O)cc1  Muscarinic acetylcholine receptor M2 (Homo sapiens)          AC50   > 30 µM
26  C[C@H]1COc2c(C3(N)CC3)c(F)cc3c(=O)c(C(=O)O)cn1c23  Muscarinic acetylcholine receptor M2 (Homo sapiens)          AC50   > 10 µM
27  CCCCN1C[C@H](O)[C@@H](O)[C@H](O)[C@H]1CO  Muscarinic acetylcholine receptor M2 (Homo sapiens)          AC50   > 30 µM
28  C=CCN1CCCC1CNC(=O)c1cc(S(N)(=O)=O)cc(OC)c1OC (stereo not drawn) [VERALIPRIDE]  Muscarinic acetylcholine receptor M2 (Homo sapiens)          AC50   > 30 µM
29  Cc1cn([C@H]2C[C@H](N=[N+]=[N-])[C@@H](CO)O2)c(=O)[nH]c1=O  Muscarinic acetylcholine receptor M2 (Homo sapiens)          AC50   > 10 µM
30        O=C(O)CCCCCCNC1c2ccccc2CCc2ccccc21  Muscarinic acetylcholine receptor M2 (Homo sapiens)          AC50   > 30 µM
31  CCC1(CC)C(=O)NCC(C)C1=O (stereo not drawn)  Muscarinic acetylcholine receptor M2 (Homo sapiens)          AC50   > 30 µM
32               Brc1c(NC2=NCCN2)ccc2nccnc12  Muscarinic acetylcholine receptor M2 (Homo sapiens)          AC50   > 30 µM
33  CC1(C)NC(=O)N(c2ccc([N+](=O)[O-])c(C(F)(F)F)c2)C1=O [NILUTAMIDE]  Muscarinic acetylcholine receptor M2 (Homo sapiens)          AC50   > 30 µM
34  COc1cc2nc(N3CCN(C(=O)c4ccco4)CC3)nc(N)c2cc1OC  Muscarinic acetylcholine receptor M2 (Homo sapiens)          AC50   > 10 µM
35  CC(C[N+](C)(C)C)OC(N)=O (stereo not drawn)  Muscarinic acetylcholine receptor M2 (Homo sapiens)          AC50    3.9 µM
36  Clc1ccc(C(c2ccccc2Cl)C(Cl)Cl)cc1 (stereo not drawn)  Muscarinic acetylcholine receptor M2 (Homo sapiens)          AC50   > 10 µM
37  CC(Oc1c(Cl)cccc1Cl)C1=NCCN1 (stereo not drawn)  Muscarinic acetylcholine receptor M2 (Homo sapiens)          AC50   > 30 µM
